Source listed as PubChem BioAssay (NCI).

Test system: NCI-H23 lung
Test Protocol: NCI-60 one-dose screen, 48 h
Condition Set: 10 µM unless noted
The panel holds about 83,000 compounds, 20% with a hit somewhere; the sample as a whole holds those more often. Activity calls are given as the source filed them. Rule for the calls: active = growth percent below 10; inactive = the rest.
Outcome (select one): yes for active, no for inactive

Molecule	Assigned Category
NS(=O)(=O)c1ccc(C(=O)NN2C(=O)c3c(Br)c(Br)c(Br)c(Br)c3C2=O)cc1	no
COc1ccc(/C=C/C(c2cc(OC)c(OC)c(OC)c2)n2ccnc2)cc1O (stereo unspecified)	no
CC(=O)/C(=C/c1ccc([N+](=O)[O-])cc1)C(=O)c1ccccc1	no
Cc1ccc(-c2nc(-c3cn(C)c4ncccc34)cs2)cc1	yes
O=C(Nc1cc(Cl)ccc1O)c1cccc(Nc2ccnc(C(F)(F)F)c2)c1	no

## Task Short answer needed: outcome of this test for CCOC(=O)c1cnc2c(N=Nc3ccc(OC)cc3)c(N)nn2c1N ?
## Result no

## Task Short answer needed: outcome of this test for O=C(Nc1ncc(Cc2ccccc2)s1)c1ccc2c(c1)OCCCO2 ?
## Result no

## Task Short answer needed: outcome of this test for CCCCNc1cc(-c2cn[nH]c2-c2cc(C)cc(OC)c2)nc(-c2cccnc2)n1 ?
## Result no

## Task Short answer needed: outcome of this test for C=C1C(=O)O[C@H]2[C@H]1CC/C(COC(=O)/C=C/C(=O)OC/C1=C/CC[C@@]3(C)O[C@H]3[C@H]3OC(=O)C(=C)[C@@H]3CC1)=C\CC[C@@]1(C)O[C@@H]21 ?
## Result no

## Task Short answer needed: outcome of this test for C=C1CC[C@@H]2C(C)(C)[C@@H](O)CC[C@@]2(C)[C@@H]1COc1ccc2ccc(=O)oc2c1 ?
## Result no

## Task Short answer needed: outcome of this test for CNC(=O)c1cc(Oc2ccc3c(c2)sc2nc(-c4ccc(OC)cc4)cn23)ccn1 ?
## Result no

## Task Short answer needed: outcome of this test for O=C(/C=C/c1ccccc1)c1ccc(Nc2nc(Nc3ccc(F)cc3)nc(Nc3ccc(Cl)cc3)n2)cc1 ?
## Result no

## Task Short answer needed: outcome of this test for CCn1cc(CNc2ccc(C(=O)Nc3cc4cc(OC)c(OC)cc4c(C)n3)cc2)cn1 ?
## Result no

## Task Short answer needed: outcome of this test for c1nc2ccc(-c3cc4ccc5[nH]ncc5c4c4c3CCCC4)cc2[nH]1 ?
## Result no

## Task Short answer needed: outcome of this test for COc1ccc2c(c1)CCc1[nH]nc(-c3cc(OC)c(OC)c(OC)c3)c1-2 ?
## Result no

## Task Short answer needed: outcome of this test for CCCCCCCCCCCCCCCCCCOc1ccccc1CC(=O)NCC[N+]1(C)CCCCC1 ?
## Result no

## Task Short answer needed: outcome of this test for CN(C)CCCNC(=O)c1cncnc1Nc1ccc(OCc2cccc(F)c2)c(Cl)c1 ?
## Result no

## Task Short answer needed: outcome of this test for COc1ccc(C2=CC(c3cc(OC)c(OC)c(OC)c3)n3ncnc3N2)cc1 (stereo unspecified) ?
## Result no

## Task Short answer needed: outcome of this test for Cc1ccc2c(=O)cc(C(=O)Nc3sc4c(c3C(=O)NCc3cccnc3)CCCC4)oc2c1C ?
## Result no

## Task Short answer needed: outcome of this test for Cc1ccccc1Nc1cc(O)c2c(=O)cc(-c3ccccc3)oc2c1 ?
## Result no

## Task Short answer needed: outcome of this test for CN1CCN(Cc2ccc(NC(=O)c3cncc(C#Cc4cnc(N)c5ncccc45)c3)cc2C(F)(F)F)CC1 ?
## Result no

## Task Short answer needed: outcome of this test for Cc1cccc[n+]1C1c2ccccc2-c2ccccc21 ?
## Result no

## Task Short answer needed: outcome of this test for Cc1ccc(-c2nc(/C=C3/C(=O)Nc4ccc(F)cc43)c3ccccn23)cc1 ?
## Result no
